Readings of IC50 for the listed molecules
target: Vasopressin V1a receptor (Homo sapiens, UniProt P37288); assay: Binding affinity for human cloned vasopressin V1a receptor expressed in CHO cells
Sequence (P37288 whole entry): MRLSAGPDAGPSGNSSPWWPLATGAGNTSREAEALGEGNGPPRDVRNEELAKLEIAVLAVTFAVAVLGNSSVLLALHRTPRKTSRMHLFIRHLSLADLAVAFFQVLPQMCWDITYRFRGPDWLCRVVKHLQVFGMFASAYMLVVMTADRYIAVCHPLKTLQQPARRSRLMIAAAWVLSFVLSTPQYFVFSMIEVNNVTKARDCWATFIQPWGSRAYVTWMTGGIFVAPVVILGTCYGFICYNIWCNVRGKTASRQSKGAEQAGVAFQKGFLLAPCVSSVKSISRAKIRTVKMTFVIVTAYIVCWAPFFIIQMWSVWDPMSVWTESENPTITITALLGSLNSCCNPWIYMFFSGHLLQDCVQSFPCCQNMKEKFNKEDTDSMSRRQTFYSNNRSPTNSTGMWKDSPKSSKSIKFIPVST

Can you look up the measured IC50 of CC1(C(C(=O)OCc2ccccc2)N2C(=O)C(NC(=O)Nc3ccccc3)[C@H]2/C=C/c2ccccc2)OCCO1 (some centres undefined) for me?
> 5000 nM

Can you look up the measured IC50 of CC(C)(C)C(=O)C(C(=O)OCc1ccccc1)N1C(=O)[C@@H](N2C(=O)OC[C@@H]2c2ccccc2)[C@H]1C=O (some centres undefined) for me?
> 20000 nM

Can you look up the measured IC50 of `CC(C)C[C@@H](C(=O)NCc1ccccc1Cl)N1C(=O)[C@@H](N2C(=O)OC[C@@H]2c2ccccc2)[C@H]1/C=C/c1ccccc1` for me?
1000 nM

Can you look up the measured IC50 of CC(C)(C)C(=O)C(C(=O)OCc1ccccc1)N1C(=O)[C@@H](N2C(=O)OC[C@@H]2c2ccccc2)[C@H]1CCc1ccccc1 (some centres undefined) for me?
> 500 nM

====

test: Half life in Sprague-Dawley rat plasma at 20 mg/kg, po; format: ADME, organism-based; design: dose 20 mg/kg, route oral
Readings of half-life for the listed compounds
Respond numerically; units are h and should not be typed.

Can you look up the measured half-life of `CN(Cc1cccc(C(F)(F)F)c1)C(=O)[C@@H](CC(=O)N1CCC(N2CCCCC2)CC1)N1C(=O)[C@@H](N2C(=O)OC[C@@H]2c2ccccc2)[C@H]1/C=C/c1ccccc1` for me?
4

Turning now to a further compound:
Can you look up the measured half-life of `C[C@@H](NC(=O)[C@@H](CC(=O)N1CCC(N2CCCCC2)CC1)N1C(=O)[C@@H](N2C(=O)OC[C@@H]2c2ccccc2)[C@H]1/C=C/c1ccccc1)c1ccccc1` for me?
2.5

====

molecular target: UniProt:P37288; assay: Binding affinity for human cloned vasopressin V1a receptor expressed in CHO cells; assay type: cell-based
recorded endpoint: pKi
A value of pKi is the negative decimal logarithm of a concentration given in moles per litre.

Can you look up the measured pKi of `O=C(NCc1cccc(C(F)(F)F)c1)[C@H](CCC(=O)N1CCN(C2CCCCC2)CC1)N1C(=O)[C@@H](N2C(=O)OC[C@@H]2c2ccccc2)[C@H]1/C=C/c1ccccc1` for me?
9.57

Continuing:
Can you look up the measured pKi of `O=C(NCc1cccc(C(F)(F)F)c1)[C@H](CC(=O)N1CCN(C2CCCCC2)CC1)N1C(=O)[C@@H](N2C(=O)OC[C@@H]2c2ccccc2)[C@H]1/C=C/c1ccccc1` for me?
7.52

Can you look up the measured pKi of `C[C@H](NC(=O)[C@H](CC(=O)N1CCC(CCN2CCCCC2)CC1)N1C(=O)[C@@H](N2C(=O)OC[C@@H]2c2ccccc2)[C@H]1/C=C/c1ccccc1)c1ccccc1` for me?
8.06

====

assay: Drug level in dog brain at 10 mg/kg, po after 4 hrs; format: ADME, organism-based, Canis lupus familiaris; parameters: dose 10 mg/kg, route oral; conditions: read-out: Drug uptake
recorded endpoint: concentration at 4 h (nM)
Respond numerically; units are nM and should not be typed.

Can you look up the measured concentration at 4 h of `CC(C)C[C@@H](C(=O)N1CCC(CCN2CCCCC2)CC1)N1C(=O)[C@@H](N2C(=O)OC[C@@H]2c2ccccc2)[C@H]1/C=C/c1ccccc1` for me?
100

====

target: Vasopressin V1a receptor (Homo sapiens); assay: Binding affinity for human cloned vasopressin V1a receptor expressed in CHO cells
Readings of IC50 for the listed molecules
Respond numerically; units are nM and should not be typed.

Sample answers from the record:
Recorded IC50 for CC1(C(C(=O)OCc2ccccc2)N2C(=O)[C@@H](N3C(=O)c4ccccc4C3=O)[C@H]2/C=C/c2ccccc2)OCCO1 (some centres not stated) with Vasopressin V1a receptor (Homo sapiens), please?
61000

Recorded IC50 for O=C(OCc1ccccc1)C(C(=O)c1ccccc1)N1C(=O)[C@@H](N2C(=O)OC[C@@H]2c2ccccc2)[C@H]1/C=C/c1ccccc1 (some centres not stated) with Vasopressin V1a receptor (Homo sapiens), please?
100

Continuing:
Recorded IC50 for `CC(C)C[C@@H](C(=O)NCc1ccc(Cl)cc1)N1C(=O)[C@@H](N2C(=O)OC[C@@H]2c2ccccc2)[C@H]1/C=C/c1ccccc1` with Vasopressin V1a receptor (Homo sapiens), please?
262

Recorded IC50 for `CC(C)C[C@@H](C(=O)N1CCC(N2CCCCC2)CC1)N1C(=O)[C@@H](N2C(=O)OC[C@@H]2c2ccccc2)[C@H]1/C=C/c1ccccc1` with Vasopressin V1a receptor (Homo sapiens), please?
54

Recorded IC50 for CC(C)(C)C(=O)C(C(=O)OCc1ccccc1)N1C(=O)[C@@H](N2C(=O)OC[C@@H]2c2ccccc2)[C@H]1/C=C/c1ccco1 (some centres not stated) with Vasopressin V1a receptor (Homo sapiens), please?
2

====

assay: Cmax in Sprague-Dawley rat brain at 20 mg/kg, po; assay type: ADME, organism-based; parameters: dose 20 mg/kg, route oral
recorded endpoint: Cmax (ng/mL)
Respond numerically; units are ng/mL and should not be typed.

Can you look up the measured Cmax of `C[C@@H](NC(=O)[C@@H](CC(=O)N1CCC(N2CCCCC2)CC1)N1C(=O)[C@@H](N2C(=O)OC[C@@H]2c2ccccc2)[C@H]1/C=C/c1ccccc1)c1ccccc1` for me?
20

Continuing:
Can you look up the measured Cmax of `CN(Cc1cccc(C(F)(F)F)c1)C(=O)[C@@H](CC(=O)N1CCC(N2CCCCC2)CC1)N1C(=O)[C@@H](N2C(=O)OC[C@@H]2c2ccccc2)[C@H]1/C=C/c1ccccc1` for me?
48

====

assay: Cmax in Sprague-Dawley rat plasma at 20 mg/kg, po; type: ADME, organism-based; design: dose 20 mg/kg, route oral
Readings of Cmax for the listed compounds

Sample answers from the record:
Can you look up the measured Cmax of `CN(Cc1cccc(C(F)(F)F)c1)C(=O)[C@@H](CC(=O)N1CCC(N2CCCCC2)CC1)N1C(=O)[C@@H](N2C(=O)OC[C@@H]2c2ccccc2)[C@H]1/C=C/c1ccccc1` for me?
160 ng/mL

Can you look up the measured Cmax of `C[C@@H](NC(=O)[C@@H](CC(=O)N1CCC(N2CCCCC2)CC1)N1C(=O)[C@@H](N2C(=O)OC[C@@H]2c2ccccc2)[C@H]1/C=C/c1ccccc1)c1ccccc1` for me?
100 ng/mL

Turning now to a further compound:
Can you look up the measured Cmax of `O=C(NCc1cccc(C(F)(F)F)c1)[C@@H](CC(=O)N1CCC(N2CCCCC2)CC1)N1C(=O)[C@@H](N2C(=O)OC[C@@H]2c2ccccc2)[C@H]1/C=C/c1ccccc1` for me?
50 ng/mL

====

target: Vasopressin V1a receptor (Homo sapiens, UniProt P37288); assay: Binding affinity for human cloned vasopressin V1a receptor expressed in CHO cells
recorded endpoint: IC50 (nM)
Respond numerically; units are nM and should not be typed.

Recorded IC50 for `O=C(CN1C(=O)[C@@H](N2C(=O)OC[C@@H]2c2ccccc2)[C@H]1/C=C/c1ccccc1)OCc1ccccc1` with Vasopressin V1a receptor (Homo sapiens, UniProt P37288), please?
400

Recorded IC50 for `CC(C)C[C@@H](C(=O)NCc1ccccc1)N1C(=O)[C@@H](N2C(=O)OC[C@@H]2c2ccccc2)[C@H]1/C=C/c1ccccc1` with Vasopressin V1a receptor (Homo sapiens, UniProt P37288), please?
128

Recorded IC50 for CC(C)(C)C(=O)[C@@H](C(=O)N1CCC(CCN2CCCCC2)CC1)N1C(=O)[C@@H](N2C(=O)OCC2c2ccccc2)C1/C=C/c1ccccc1 (single isomer, unassigned) with Vasopressin V1a receptor (Homo sapiens, UniProt P37288), please?
85

Recorded IC50 for CC1(C(C(=O)OCc2ccccc2)N2C(=O)[C@@H](N3C(=O)OC[C@@H]3c3ccccc3)[C@H]2/C=C/c2ccccc2)OCCO1 (some centres not stated) with Vasopressin V1a receptor (Homo sapiens, UniProt P37288), please?
45

Recorded IC50 for CC1(C(C(=O)OCC[Si](C)(C)C)N2C(=O)[C@@H](N3C(=O)OC[C@@H]3c3ccccc3)[C@H]2/C=C/c2ccccc2)OCCO1 (some centres not stated) with Vasopressin V1a receptor (Homo sapiens, UniProt P37288), please?
405

====

Endpoint: Ki. System: Vasopressin V1a receptor (Homo sapiens). Items follow.
Respond numerically; units are nM and should not be typed.

Can you look up the measured Ki of C[C@@H](NC(=O)[C@@H](CC(=O)N1CCC(N2CCCCC2)CC1)N1C(=O)[C@@H](N2C(=O)OC[C@@H]2c2ccccc2)[C@H]1/C=C/c1ccccc1)c1cccc(C(F)(F)F)c1 [SRX246] for me?
1.27

Turning now to a further compound:
Can you look up the measured Ki of `O=C(NCc1cccc(C(F)(F)F)c1)[C@H](CCC(=O)N1CCN(CCc2ccccc2)CC1)N1C(=O)[C@@H](N2C(=O)OC[C@@H]2c2ccccc2)[C@H]1/C=C/c1ccccc1` for me?
1.17
